measurement.type: melting point

N#Cc1cccnc1N1CCN(Cc2nc3ccccc3[nH]2)CC1 :: 208 to 210 °C
O=C(N1CCCC1)n1c(CN2CCN(c3ccccn3)CC2)nc2ccccc21 :: 120 to 121 °C
Oc1ccc(N2CCN(Cc3nc4ccccc4[nH]3)CC2)nc1 :: 144 to 145 °C

# input For the molecule `Fc1cccnc1N1CCN(Cc2nc3ccccc3[nH]2)CC1` , what melting point is on record?
# output 210 to 212 °C

# input Would you mind telling me what melting point value was observed for `N#Cc1ccccc1N1CCN(Cc2nc3ccccc3[nH]2)CC1` ?
# output 236 to 237 °C

# input Given the molecule `C[C@@H]1CN(c2ccccn2)CCN1Cc1nc2ccccc2[nH]1` , what is its reported melting point?
# output 151 to 153 °C

Reference for the values: patent US6960589B2
